- System: clinically isolated HIV strain B
- method_description: Antiviral spectrum, cellular assay (fold resistance), strain B
- Assay type: cell-based
- recorded_conditions: FR=EC50(mutant strain)/EC50(HIV-1 strain LAI)
readout_kind: fold resistance (FR), strain B

[[record]]
molecule = "CC(C)CN(C[C@@H](O)[C@H](Cc1ccccc1)NC(=O)O[C@H]1CCOC1)S(=O)(=O)c1ccc2nc(NC(=O)CN3CCNCC3)sc2c1 [Compound 35]"
readout_kind = "fold resistance (FR), strain B"
test_result = 0.9

[[record]]
molecule = "CC(C)CN(C[C@@H](O)[C@H](Cc1ccccc1)NC(=O)O[C@H]1CCOC1)S(=O)(=O)c1ccc2nc(NC(=O)CN(C)C)sc2c1 [Compound 34]"
readout_kind = "fold resistance (FR), strain B"
test_result = 5.9

[[record]]
molecule = "CC(C)CN(C[C@@H](O)[C@H](Cc1ccccc1)NC(=O)O[C@H]1CO[C@H]2OCC[C@H]21)S(=O)(=O)c1ccc2nc(NC(=O)CN3CCCC3)sc2c1.O=C(O)/C=C/C(=O)O [Compound 13]"
readout_kind = "fold resistance (FR), strain B"
test_result = 0.2

[[record]]
molecule = "CC(C)CN(C[C@@H](O)[C@H](Cc1ccccc1)NC(=O)O[C@H]1CCOC1)S(=O)(=O)c1ccc2nc(NC(=O)CN3CCN(C)CC3)sc2c1.O=C(O)C(F)(F)F [Compound 64]"
readout_kind = "fold resistance (FR), strain B"
test_result = 0.7

